Molecular target: Cathepsin G (Homo sapiens)
Sequence (P08311 whole entry): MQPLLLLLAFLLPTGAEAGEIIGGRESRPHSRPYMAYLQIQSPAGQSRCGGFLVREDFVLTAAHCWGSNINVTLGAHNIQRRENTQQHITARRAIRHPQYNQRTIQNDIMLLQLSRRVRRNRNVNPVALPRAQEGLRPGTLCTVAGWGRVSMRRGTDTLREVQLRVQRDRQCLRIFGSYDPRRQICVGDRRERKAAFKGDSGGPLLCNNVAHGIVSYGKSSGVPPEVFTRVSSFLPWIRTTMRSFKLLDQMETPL
Experiment: Inhibitory activity against human neutrophil cathepsin G.
measuredQuantity: IC50 (µM)

Take a look at these entries with their results.
[
  {
    "chemicalStructure": "COc1ccc(S(=O)(=O)N2C(=O)CN(c3ccccc3)C2=O)cc1",
    "unitAbbreviation": "µM",
    "IC50": 4.2
  },
  {
    "chemicalStructure": "COC(=O)Cc1ccc(S(=O)(=O)N2C(=O)CN(c3ccccc3)C2=O)cc1",
    "unitAbbreviation": "µM",
    "IC50": 6.5
  },
  {
    "chemicalStructure": "O=C1CN(c2ccccc2)C(=O)N1S(=O)(=O)c1ccc([N+](=O)[O-])cc1",
    "unitAbbreviation": "µM",
    "IC50": 6.5
  }
]

A = O=C1CN(c2ccccc2Oc2ccccc2)C(=O)N1S(=O)(=O)c1ccc(Cl)cc1
B = O=C1CN(c2ccccc2)C(=O)N1S(=O)(=O)c1ccc(F)cc1
Return label of the item with the larger IC50. Candidates: A , B . Answer with the label corresponding to your selection.
A

1 = Cc1ccccc1S(=O)(=O)N1C(=O)CN(c2ccccc2)C1=O
2 = O=C1CN(c2ccccc2)C(=O)N1C(=O)c1ccc(Cl)cc1
3 = O=C1CN(c2ccccc2)C(=O)N1S(=O)(=O)c1ccccc1
4 = O=C(O)c1cccc(S(=O)(=O)N2C(=O)CN(c3ccccc3)C2=O)c1
Number of compounds to sort: 4. Sort criterion: IC50, ascending. Write the labels out in the order the request specifies.
4, 1, 2, 3
(4: 1 µM, 1: 1.8 µM, 2: 3 µM, 3: 4.5 µM)

a = O=C1CN(c2ccc(Cl)c(Cl)c2)C(=O)N1S(=O)(=O)c1ccc(Cl)c(Cl)c1
b = O=C1CN(c2ccccc2Cl)C(=O)N1S(=O)(=O)c1ccc(Cl)cc1
Hello, I am sorting some records. Could you say if a or b has the smaller IC50 value? Refer to your chosen item by its label in the answer.
b

P = Cc1ccc(N2CC(=O)N(S(=O)(=O)c3ccc(Cl)cc3)C2=O)cc1C
Q = COC(=O)Cc1cccc(S(=O)(=O)N2C(=O)CN(c3ccccc3)C2=O)c1
Just tell me: smaller IC50 value, P or Q ? Use the label to indicate which entry you chose.
P

Data origin: ChEMBL document CHEMBL1130085
